Assay: in vivo
Conditions: BALB/c, mouse, iv, 2 mg/kg
quantityKind: clearance
Units required after the number.

Please indicate clearance recorded for Cn1cc2c(n1)c(=O)n(-c1cccnc1C1CC1)c1cc(Cl)c(F)cc21 2 mL/min/kg

====

Test: in vivo
Conditions: Sprague-Dawley, rat, iv, 1 mg/kg
quantityKind: half-life (h)
Please reply with the bare figure in h and do not write the unit itself.

Please indicate half-life recorded for Cn1cc2c(n1)c(=O)n(-c1cccnc1C1CC1)c1cc(Cl)c(F)cc21 6.8

====

Assay: in vitro
Conditions: cynomolgus monkey, liver microsomes
quantityKind: half-life (h)
Please reply with the bare figure in h and do not write the unit itself.

Please indicate half-life recorded for Cn1cc2c(n1)c(=O)n(-c1cccnc1C1CC1)c1cc(Cl)c(F)cc21 3.63
